Test system: HOP-92 NSCLC
Assay Remarks: NCI-60 one-dose screen, 48 h
Assay Setup: 10 µM unless noted
This is part of a sample that, as a whole, favours compounds with a hit. Of some 83,000 tested, about 20% had one in any assay. Active and inactive are the calls of the source. The calls were made as follows: active = growth percent below 10; inactive = the rest.
Outcomes: active, inactive

>  <Compound>
CCOC(=O)c1ccccc1NC1=C(Cl)C(=O)c2nc(C)ccc2C1=O

>  <Category>
inactive

$$$$
>  <Compound>
CN1CCN(c2ccc(Nc3nc(NCCCNS(=O)(=O)c4ccccc4)c4sccc4n3)cc2)CC1

>  <Category>
inactive

$$$$
>  <Compound>
CN(C)c1ccc(/C=N/Nc2nc(N/N=C/c3ccc(N(C)C)cc3)nc(N3CCCCC3)n2)cc1

>  <Category>
inactive

$$$$
>  <Compound>
CC[C@]12CC(C(=O)OC)=C3Nc4ccccc4[C@@]34CCN(C14)[C@@H]1c3cc4c(cc3O[C@@H]1[C@H]2O)NC1=C(C(=O)OC)C[C@@]2(CC)C3N(CC[C@@]143)C[C@H]1O[C@H]12 (stereo partly drawn)

>  <Category>
active

$$$$
>  <Compound>
CN(C)CC(=O)Nc1nc(-c2cccc(NS(=O)(=O)c3cccc4c(N(C)C)cccc34)c2)cs1

>  <Category>
inactive

$$$$
>  <Compound>
COc1ccc(/C=N\NC(=O)c2cnn(CC(O)c3ccccc3)c2N)cc1OCc1ccc(Cl)cc1 (stereo not drawn)

>  <Category>
inactive

$$$$
>  <Compound>
O=C1[C@H]2Cc3c([nH]c4ccccc34)[C@H](c3ccc(Cl)cc3)N2C(=O)CN1C1CCN(CC2CCCCC2)CC1

>  <Category>
inactive

$$$$
>  <Compound>
Cc1cc(NS(=O)(=O)c2ccc(NC(=O)CSc3nc4ccccc4c(=O)n3-c3ccccc3)cc2)no1

>  <Category>
inactive

$$$$

Values were extracted from PubChem BioAssay (NCI).
